Catalogue of binders with associated TL1A Binding Level (Late)
assay_target: T1, human TL1A extracellular domain with N-terminal HIS and FLAG tag (human, UniProt O95150 72-251)
T1 construct: whole entry named. ~70 kDa fraction purified by gel filtration
T1 sequence: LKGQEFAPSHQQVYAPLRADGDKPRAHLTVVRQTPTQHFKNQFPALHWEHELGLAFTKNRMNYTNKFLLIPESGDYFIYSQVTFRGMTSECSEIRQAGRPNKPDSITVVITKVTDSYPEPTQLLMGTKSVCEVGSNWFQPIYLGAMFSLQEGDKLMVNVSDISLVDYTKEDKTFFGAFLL
assay_comment: SPR run 1; purified antibody on Protein A; TL1A 10 ug/mL; timepoint 590
Please give a number only; it is taken to be in RU.

Example cases with answers are listed next.
- 320-188 (antibody, human IgG1, name in Kabat numbering, V domains shown, human IgG1, lambda) VH: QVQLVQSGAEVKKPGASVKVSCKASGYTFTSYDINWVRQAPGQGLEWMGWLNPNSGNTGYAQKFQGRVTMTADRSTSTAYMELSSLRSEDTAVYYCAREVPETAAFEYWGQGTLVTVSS VL: QSVLTQPPSVSGAPGQRVTISCTSSSSDIGAGLGVHWYQQLPGTAPKLLIEGYYNRPSGVPDRFSGSKSGTSASLTITGLHPEDEGDYYCQSYDGTLSALFGGGTKLTVLG: 113
- 320-185 (antibody, human IgG1, name in Kabat numbering, V domains shown, human IgG1, lambda) VH: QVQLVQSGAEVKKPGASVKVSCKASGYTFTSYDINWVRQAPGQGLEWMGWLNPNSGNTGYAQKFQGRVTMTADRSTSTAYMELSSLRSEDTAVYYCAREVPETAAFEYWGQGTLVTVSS VL: QSVLTQPPSVSGAPGQRVTISCTSSSSDIGAGLGVHWYQQLPGTAPKLLIEGYYNRPSGVPDRFSGSKSGTSASLTITGLSPEDEGDYYCQSYDGTLSALFGGGTKLTVLG: 114

So what does the record say about TL1A Binding Level (Late) for 320-186 (antibody, human IgG1, name in Kabat numbering, V domains shown, human IgG1, lambda) VH: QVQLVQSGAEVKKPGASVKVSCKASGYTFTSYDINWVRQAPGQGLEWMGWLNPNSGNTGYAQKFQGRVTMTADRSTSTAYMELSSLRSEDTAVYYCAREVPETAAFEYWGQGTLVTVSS VL: QSVLTQPPSVSGAPGQRVTISCTSSSSDIGAGLGVHWYQQLPGTAPKLLIEGYYNRPSGVPDRFSGSKSGTSASLTITGLQPEDEGDYYCQSYDGTLSALFGGGTKLTVLG ?
113
